The origin of these recorded values is PubChem BioAssay (EPA / NIEHS).

Assay: APR_HepG2_StressKinase_24hr: Apredica 24-hour HepG2 Assay for Stress Kinase (AID 2282922)
Details: HepG2 stress kinase (phospho-c-Jun) imaging, actives raise or lower the signal
The source made the active and inactive calls. The calls were made as follows: active = hit-call score of the fitted dose curve at least 0.9, where 1 is the maximum; inactive = score below 0.9.
Response enum: active, inactive

Solved cases below.
Cc1c(C)c2c(c(C)c1O)CCC(C)(COc1ccc(CC3SC(=O)NC3=O)cc1)O2 (stereo not drawn); inactive
O=C(O)c1[nH]n(-c2ccc(S(=O)(=O)O)cc2)c(=O)c1N=Nc1ccc(S(=O)(=O)O)cc1; inactive
CN(C)CCCN(C)CCCN(C)C; inactive

Any idea what this test logged for CC(=O)CC(c1ccccc1)c1c(O)c2ccccc2oc1=O (stereo not drawn) ?
inactive

Any idea what this test logged for CCCCC(CC)CO (stereo not drawn) ?
inactive

Any idea what this test logged for NC1CCCCC1 ?
inactive

Any idea what this test logged for CN(C)CCCN1c2ccccc2Sc2ccc(Cl)cc21 ?
active

Any idea what this test logged for Cc1cc(SC2=C(O)C[C@@](CCc3ccc(N)cc3)(C(C)C)OC2=O)c(C(C)(C)C)cc1CO ?
inactive

Any idea what this test logged for c1ccc2occc2c1 ?
inactive

Any idea what this test logged for CSc1ccc(Oc2ccc(S(N)(=O)=O)cc2CN(C)C)cc1C ?
inactive

Any idea what this test logged for CCCC[C@H]1CN(CC2CCOCC2)C(=O)OC12CCN(C1(C)CCN(C(=O)c3c(C)ncnc3C)CC1)CC2 ?
inactive

Any idea what this test logged for S=c1[nH]c2ccccc2s1 ?
inactive

Any idea what this test logged for Cc1cc(Cc2ccc(N)c(C)c2)ccc1N ?
inactive

* * *

Target: human Sirtuin 1 (SIRT1), SIRT1 (gene 23411)
Assay: NVS_ENZ_hSIRT1: NovaScreen (NVS) Enzymatic Assay for human Sirtuin 1 (SIRT1) (AID 2283219)
Results filed as inconclusive are left out. Calls of active or inactive are those of the source. Rule for the calls: active = hit-call score of the fitted dose curve at least 0.9, where 1 is the maximum; inconclusive = response in the unintended direction; inactive = score below 0.9.
parameter: outcome

Below are worked cases with known answers.
O=C(Oc1ccccc1)c1cccc(C(=O)Oc2ccccc2)c1; inactive
CC(C)(O)c1ccc(CNC(=O)c2cccnc2Oc2ccc(F)cc2)cc1; inactive
N[C@@H](Cc1c[nH]c2ccccc12)C(=O)O; inactive
Cc1cc(SC2=C(O)C[C@@](CCc3ccc(N)cc3)(C(C)C)OC2=O)c(C(C)(C)C)cc1CO; inactive

Input CC1=C(C)S(=O)(=O)CCS1(=O)=O , output reported outcome.
inactive

* * *

Read-out: Cellular tumor antigen p53 (Homo sapiens)
Experiment: LTEA_HepaRG_TP53: Life Technologies and Expression Analysis (LTEA) Assay for Tumor Protein P53 (TP53) using HepaRG (AID 2283537)
Details: mRNA level, 48 h; actives raise or lower the signal
Activity calls are given as the source filed them. The calls were made as follows: active = hit-call score of the fitted dose curve at least 0.9, where 1 is the maximum; inactive = score below 0.9.
Response enum: label 1 = active, label 0 = inactive

CC(=O)S[C@H](C(=O)N[C@H]1Cc2ccccc2[C@H]2CCC[C@@H](C(=O)O)N2C1=O)C(C)C; label 0

Any idea what this test logged for CCCCC(CC)CO (stereo unspecified) ?
label 0

Any idea what this test logged for OCC(O)CO ?
label 0

Any idea what this test logged for CC(C)(C)c1ccccc1 ?
label 0

Any idea what this test logged for O=C1OC(c2ccc(O)cc2)(c2ccc(O)cc2)c2ccccc21 ?
label 0

Any idea what this test logged for C=CCc1ccc(OC)c(OC)c1 ?
label 0

Any idea what this test logged for CO[C@@H]1COCC[C@@H]1N[C@@H]1CC[C@@](C(=O)N2CCc3ncc(C(F)(F)F)cc3C2)(C(C)C)C1 ?
label 0

Any idea what this test logged for CN(C)C(=O)NC1(c2ccccc2)CCN(CCC[C@]2(c3ccc(Cl)c(Cl)c3)CCCN(C(=O)c3ccccc3)C2)CC1 ?
label 0

* * *

Experiment: CCTE_Harrill_HTTr_Viability_PRF_DMEM_12hr: (Pilot) CCTE's 12-hour Cell Viability Assessment for the High-Throughput Transcriptomics (HTTr) Platform, in MCF-7 cells cultured in phenol red-free DMEM + 10% charcoal-stripped fetal bovine serum, Harrill Lab (AID 2283977)
Active and inactive are the calls of the source. How the source made its calls: active means hit-call score of the fitted dose curve at least 0.9, where 1 is the maximum; inactive means score below 0.9.
parameter: AC50

Below are worked cases with known answers.
Cc1c(C)c2c(c(C)c1O)CCC(C)(COc1ccc(CC3SC(=O)NC3=O)cc1)O2 (stereo not given); inactive
CC(=O)O[C@]1(C(C)=O)CC[C@H]2[C@@H]3C=C(Cl)C4=CC(=O)[C@@H]5C[C@@H]5[C@]4(C)[C@H]3CC[C@@]21C; inactive
CCN(CC)CCOc1ccc(C(=C(Cl)c2ccccc2)c2ccccc2)cc1; 65.8 µM (active)
COC(=O)[C@H]1[C@H]2C[C@@H]3c4[nH]c5cc(OC)ccc5c4CCN3C[C@H]2C[C@@H](OC(=O)c2cc(OC)c(OC)c(OC)c2)[C@@H]1OC; inactive

With those in mind, consider the next compound.
Input Nc1nc(Cl)nc2c1ncn2[C@H]1C[C@H](O)[C@@H](CO)O1 , output reported AC50.
inactive

* * *

Target: D(1A) dopamine receptor (Homo sapiens)
Assay: NVS_GPCR_hDRD1: NovaScreen (NVS) G Protein-Coupled Receptor Assay for human Dopamine Receptor D1 (DRD1) (AID 2283269)
Inconclusive results are not listed. Activity calls are given as the source filed them. Rule for the calls: active = hit-call score of the fitted dose curve at least 0.9, where 1 is the maximum; inconclusive = response in the unintended direction; inactive = score below 0.9.
Response enum: t = active, f = inactive

Cc1cc(SC2=C(O)C[C@@](CCc3ccc(N)cc3)(C(C)C)OC2=O)c(C(C)(C)C)cc1CO; f
COc1ccc(OC(F)(F)F)cc1CN[C@H]1CCCN[C@H]1c1ccccc1; t
CCN(CC)CCOc1ccc(C(=C(Cl)c2ccccc2)c2ccccc2)cc1; t
O=C1OC(c2ccc(O)cc2)(c2ccc(O)cc2)c2ccccc21; t
CCCCCCCCCCCCCCOS(=O)(=O)O; t

Any idea what this test logged for CCc1nc(N)nc(N)c1-c1ccc(Cl)cc1 ?
t

* * *

Read-out: Tissue Factor, F3 (gene 2152)
Test: BSK_CASM3C_TissueFactor: BioMAP Diversity Plus: CASM3C Assay for Tissue Factor Biomarker Activity (AID 2283052);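 also: cell surface tissue factor protein level read by ELISA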
Conditions: primary human coronary artery smooth muscle cells; actives raise or lower the signal
Activity calls are given as the source filed them. Rule for the calls: active = hit-call score of the fitted dose curve at least 0.9, where 1 is the maximum; inactive = score below 0.9.
Response enum: true = active, false = inactive

O=C(O)c1[nH]n(-c2ccc(S(=O)(=O)O)cc2)c(=O)c1N=Nc1ccc(S(=O)(=O)O)cc1; false

Any idea what this test logged for CO[C@@H]1COCC[C@@H]1N[C@@H]1CC[C@@](C(=O)N2CCc3ncc(C(F)(F)F)cc3C2)(C(C)C)C1 ?
false

Any idea what this test logged for Cc1ccc(-c2cc(C(F)(F)F)nn2-c2ccc(S(N)(=O)=O)cc2)cc1 ?
true

Any idea what this test logged for Cc1occc(=O)c1O ?
false

Any idea what this test logged for Cc1cc(Cc2ccc(N)c(C)c2)ccc1N ?
false

* * *

Assay: Tanguay_ZF_120hpf_TRUN_legacy: (Legacy) Oregon State University Tanguay Lab 120 Hour Post-fertilization zebrafish Assay for Truncated Body (AID 2283655)
Records with an inconclusive call do not appear. Calls of active or inactive are those of the source. The calls were made as follows: active = hit-call score of the fitted dose curve at least 0.9, where 1 is the maximum; inconclusive = response in the unintended direction; inactive = score below 0.9.
Response enum: True = active, False = inactive

CN(C)C(=O)NC1(c2ccccc2)CCN(CC[C@@]2(c3ccc(F)c(F)c3)CN(C(=O)c3ccccc3)CCO2)CC1; False
COC(=O)CCC(=O)OC; False
Nc1nc(=S)c2[nH]cnc2[nH]1; False
CCCCCCC(C=O)=Cc1ccccc1; False
CCCCc1nc2cccnc2n1Cc1ccc(-c2ccccc2-c2nnn[nH]2)cc1; False
Cc1ccc(-c2cc(C(F)(F)F)nn2-c2ccc(S(N)(=O)=O)cc2)cc1; False
C=CCCCCCCCCCCCC; False
Oc1ccccc1O; False
CN(C)C(=O)NC1(c2ccccc2)CCN(CCC[C@]2(c3ccc(Cl)c(Cl)c3)CCCN(C(=O)c3ccccc3)C2)CC1; False
CCCCC(CC)COP(=O)(OCC(CC)CCCC)OCC(CC)CCCC (stereo unspecified); False

Any idea what this test logged for C=CCc1ccc(OC)c(OC)c1 ?
False

Any idea what this test logged for Cc1cc(Cc2ccc(N)c(C)c2)ccc1N ?
False

Any idea what this test logged for O=C1c2c(O)cccc2Cc2cccc(O)c21 ?
False

Any idea what this test logged for NC(=Nc1ccccc1)Nc1ccccc1 ?
False

Any idea what this test logged for CC(C)NCC(O)c1ccc(O)c(O)c1 (stereo unspecified) ?
False

Any idea what this test logged for CCCCCCCCCCCCCCOS(=O)(=O)O ?
True

Any idea what this test logged for O=C1O[C@H]([C@H](O)CO)C(O)=C1O ?
False

Any idea what this test logged for CC(=O)[C@@]1(O)CC[C@H]2[C@@H]3CCC4=CC(=O)CC[C@]4(C)[C@H]3CC[C@@]21C ?
False

* * *

Target: human Esterase Plasma (ES), BCHE (gene 590)
Experiment: NVS_ENZ_hES: NovaScreen (NVS) Enzymatic Assay for human Esterase Plasma (ES) (AID 2283157)
Records with an inconclusive call do not appear. Calls of active or inactive are those of the source. The calls were made as follows: active = hit-call score of the fitted dose curve at least 0.9, where 1 is the maximum; inconclusive = response in the unintended direction; inactive = score below 0.9.
Response enum: Yes = active, No = inactive

Solved cases below.
CN(C)C(=O)NC1(c2ccccc2)CCN(CCC[C@]2(c3ccc(Cl)c(Cl)c3)CCCN(C(=O)c3ccccc3)C2)CC1; Yes
CN(C)CCCN1c2ccccc2Sc2ccc(Cl)cc21; Yes
COc1ccc(OC(F)(F)F)cc1CN[C@H]1CCCN[C@H]1c1ccccc1; Yes

Any idea what this test logged for CCN(CC)CCOc1ccc(C(=C(Cl)c2ccccc2)c2ccccc2)cc1 ?
No

Any idea what this test logged for Cc1ccc(-c2cc(C(F)(F)F)nn2-c2ccc(S(N)(=O)=O)cc2)cc1 ?
No

Any idea what this test logged for CN(C)CCCN(C)CCCN(C)C ?
Yes

Any idea what this test logged for CN(C)C(=O)NC1(c2ccccc2)CCN(CC[C@@]2(c3ccc(F)c(F)c3)CN(C(=O)c3ccccc3)CCO2)CC1 ?
Yes

Any idea what this test logged for Cc1cc(SC2=C(O)C[C@@](CCc3ccc(N)cc3)(C(C)C)OC2=O)c(C(C)(C)C)cc1CO ?
Yes

Any idea what this test logged for Cn1cnc2c1c(=O)[nH]c(=O)n2C ?
No
